- target-of-assay: DCAF1 WD40 domain (residues 1077-1390) (Homo sapiens, UniProt Q9Y4B6)
- Construct: DCAF1 WD40 domain (residues 1077-1390)
- Sequence (Q9Y4B6 1077-1390): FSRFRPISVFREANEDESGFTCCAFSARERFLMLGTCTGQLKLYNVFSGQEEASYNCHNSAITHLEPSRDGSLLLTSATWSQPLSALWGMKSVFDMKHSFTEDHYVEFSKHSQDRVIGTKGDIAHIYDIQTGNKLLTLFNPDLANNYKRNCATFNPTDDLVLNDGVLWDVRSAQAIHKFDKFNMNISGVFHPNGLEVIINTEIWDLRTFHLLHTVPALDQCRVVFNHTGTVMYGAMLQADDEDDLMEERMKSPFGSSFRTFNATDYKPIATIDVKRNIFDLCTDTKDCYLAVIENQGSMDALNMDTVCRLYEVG
- assay-details: DCAF1 binding assay by SPR (Biacore 8K+), DCAF1-3 KD
- condition-set: 25 °C, read-out: DCAF1-3 SPR (KD)
Reported Kd is given for each of the following molecules.

- molecule: "NC(=O)C[C@H](NC(=O)c1cn[nH]c1-c1c(F)cccc1C1CC1)c1cccc(Cl)c1"
  target-of-assay: "DCAF1 WD40 domain (residues 1077-1390) (Homo sapiens, UniProt Q9Y4B6)"
  Kd: "< 10 µM"
- molecule: "CCN1CCN(c2ccnc(NC3CCCN(c4cccc(F)c4)C3)n2)CC1 (stereo not shown)"
  target-of-assay: "DCAF1 WD40 domain (residues 1077-1390) (Homo sapiens, UniProt Q9Y4B6)"
  Kd: "> 200 µM"
- molecule: "NC(=O)C[C@H](NS(=O)(=O)c1c[nH]nc1-c1ccccc1F)c1cccc(Cl)c1"
  target-of-assay: "DCAF1 WD40 domain (residues 1077-1390) (Homo sapiens, UniProt Q9Y4B6)"
  Kd: "> 200 µM"

Please turn your attention to the following entry.
Query COCCN1CCN(c2ccnc(NC3CCCN(c4cccc(F)c4)C3)n2)CC1 (stereo not shown) yields Kd of 10 to 100 µM

---

- target-of-assay: DCAF1 WD40 domain (residues 1077-1390) (Homo sapiens, UniProt Q9Y4B6)
- Construct: DCAF1 WD40 domain (residues 1077-1390)
- assay-details: DCAF1 binding assay by SPR (Biacore 8K+), DCAF1-3 KD
- condition-set: 25 °C, read-out: DCAF1-3 SPR (KD)
pKd: −log10 of the molar value.
Reported pKd is given for each of the following molecules.

- molecule: "NCCCCCCCCCCCCCCCCCCCCC(=O)c1[nH]cc(C(=O)N[C@@H](CC(N)=O)c2cccc(Cl)c2)c1-c1ccccc1F"
  pKd: "< 3.70"
- molecule: "NC(=O)C[C@H](NC(=O)c1cn[nH]c1-c1ccccc1F)c1ccccc1C(N)=O"
  pKd: "< 3.70"
- molecule: "CC1CC=C(c2[nH]ncc2C(=O)N[C@@H](CC(N)=O)c2cccc(Cl)c2)CC1 (stereo partly shown)"
  pKd: "> 5.00"
- molecule: "COCCOCC[C@@H]1CN(c2cc(N3CCCCC3)ccn2)[C@@H]2CCCN(c3cccc(F)c3)[C@H]12"
  pKd: "4.00 to 5.00"
- molecule: "Fc1cccc(N2CCC[C@@H](Nc3cc(N4CCOCC4)ncc3Cl)C2)c1"
  pKd: "< 3.70"

Query COCCOCC[C@H]1CN(c2cc(N3CCCCC3)ccn2)[C@@H]2CCCN(c3cccc(F)c3)[C@H]12 yields pKd of > 5.00

Query O[C@@H]1CC[C@@H](Nc2cc(N3CCCCC3)ccn2)C[C@H]1c1ccccc1 yields pKd of 4.00 to 5.00

Query Fc1cccc(N2CCC[C@@H](Nc3cc(C4CCCCC4)ccn3)C2)c1 yields pKd of < 3.70

Query NC(=O)C[C@H](NC(=O)c1cn[nH]c1CC1CCCCC1)c1cccc(Cl)c1 yields pKd of > 5.00

Query NC(=O)OCc1cccc(N2CCC[C@H]3[C@@H]2CCN3c2cc(N3CCCCC3)ccn2)c1 yields pKd of > 5.00
